Experiment: endothelial E-selectin expression blockers – imaging, HUVEC, immunofluorescence, MLSMR starter and 10KST1 sets, primary screen (AID 487);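 further: 100% = median nuclei count of all wells on the same plate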
Settings: HUVEC TNFalpha-induced E-selectin immunofluorescence imaging, at 2 µM; measured here: cell number, toxicity
Overview of recorded nuclei count for various compounds
Your answer should be a plain number; it is taken to be in %.

Record excerpt, results attached:
Sample Cc1cc2c(c(=O)n1CCN(C)C)C(c1ccncc1)C(C#N)=C(N)O2 (centres undefined) ; nuclei count observed: 155

Sample `Cc1nc(SCC(=O)c2c[nH]c3ccccc23)n[nH]1` ; nuclei count observed: 76.3

Sample CC1c2nc3ccccc3n2C(CC(=O)NCc2ccccn2)C(=O)N1Cc1ccccc1 (centres undefined) ; nuclei count observed: 119

Sample `Cc1nc2ccc(S(=O)(=O)NCC(=O)O)cc2s1` ; nuclei count observed: 118

Sample COC(=O)c1[nH]c(C)c(/C(O)=C2\C(=O)C(=O)N(CCCN3CCOCC3)C2c2ccccn2)c1C (centres undefined) ; nuclei count observed: 113

New cases:
Sample `COc1ccc(-c2n[nH]c(C)c2-c2ccc(Cl)cc2)c(O)c1OC` ; nuclei count observed: 133

Sample `CCOC(=O)c1ccc(Oc2nc(NC)nc(OC)n2)cc1` ; nuclei count observed: 110

Sample `CCOC(=O)Nc1sc(=S)n(C)c1C` ; nuclei count observed: 95.4

Sample `CN1CCN(C(=O)c2cnn3c(C(F)F)cc(C4CC4)nc23)CC1` ; nuclei count observed: 100

====

Overview of recorded fluorescence slope for various compounds
Biological target: Muscarinic acetylcholine receptor M4 (Homo sapiens) (UniProt P08173)
Sequence (P08173 whole entry, looked up): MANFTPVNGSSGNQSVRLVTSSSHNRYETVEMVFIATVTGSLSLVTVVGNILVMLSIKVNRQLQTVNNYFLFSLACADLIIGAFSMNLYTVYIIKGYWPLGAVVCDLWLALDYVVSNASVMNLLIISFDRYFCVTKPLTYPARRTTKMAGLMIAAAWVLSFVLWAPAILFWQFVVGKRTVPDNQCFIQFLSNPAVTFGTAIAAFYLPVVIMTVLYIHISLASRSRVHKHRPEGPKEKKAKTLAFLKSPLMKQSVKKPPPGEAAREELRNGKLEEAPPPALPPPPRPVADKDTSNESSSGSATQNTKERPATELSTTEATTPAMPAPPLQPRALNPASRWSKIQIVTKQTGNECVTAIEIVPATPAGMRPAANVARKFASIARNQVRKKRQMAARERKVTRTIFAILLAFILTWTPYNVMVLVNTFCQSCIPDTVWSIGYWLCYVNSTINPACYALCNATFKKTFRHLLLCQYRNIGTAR
Experiment: M4-linked GIRK flux change, two-sided – cell-based, HEK293 M4/GIRK, thallium flux, BTC-AM, M4 allosteric agonist project, primary screen (AID 625);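 further: thallium influx through GIRK channels coupled to M4 in HEK293 cells with BTC-AM dye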
Details: at 10 µM, actives lie on both sides
Give a plain numeric answer without units written out.

Sample `COc1cc(C(=O)Nc2ccccn2)cc(OC)c1OC` ; fluorescence slope observed: 0.00377

Sample `CCn1nnc(-c2ccccc2NC(=O)c2ccc(-n3cnnn3)cc2)n1` ; fluorescence slope observed: 0.00365

Sample `O=c1c(-c2ccc(F)cc2)coc2c3c(ccc12)OCCO3` ; fluorescence slope observed: 0.00582

New cases:
Sample `CCOC(=O)c1ccc(COC(=O)CCc2nc3ccccc3[nH]c2=O)o1` ; fluorescence slope observed: 0.00556

====

Target: Muscarinic acetylcholine receptor M4 (Homo sapiens)
Assay: M4-linked GIRK flux change, two-sided – cell-based, HEK293 M4/GIRK, thallium flux, BTC-AM, M4 allosteric agonist project, primary screen (AID 625);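 further: thallium influx through GIRK channels coupled to M4 in HEK293 cells with BTC-AM dye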
Details: at 10 µM, actives lie on both sides
# binarize fluorescence slope: threshold 0.006 inclusive, high side yes (1), low side no (0)

## Input Quick check: does `Cc1ccc(-c2ccc(=O)n(CCC(=O)NCc3ccccn3)n2)cc1` have fluorescence slope greater than or equal to 0.006?
## Output yes (1)

New cases:
## Input Quick check: does `CN(CC(=O)N1CCN(C2CCCCC2)CC1)S(=O)(=O)c1cccc2nsnc12` have fluorescence slope greater than or equal to 0.006?
## Output no (0)

## Input Quick check: does `CCn1c(SCC(=O)NCCc2ccc(Cl)cc2)nnc1-c1cccs1` have fluorescence slope greater than or equal to 0.006?
## Output yes (1)

====

Molecular target: Voltage-gated potassium channel subunit beta-2 (Rattus norvegicus) (UniProt P62483)
Sequence (P62483 whole entry, looked up): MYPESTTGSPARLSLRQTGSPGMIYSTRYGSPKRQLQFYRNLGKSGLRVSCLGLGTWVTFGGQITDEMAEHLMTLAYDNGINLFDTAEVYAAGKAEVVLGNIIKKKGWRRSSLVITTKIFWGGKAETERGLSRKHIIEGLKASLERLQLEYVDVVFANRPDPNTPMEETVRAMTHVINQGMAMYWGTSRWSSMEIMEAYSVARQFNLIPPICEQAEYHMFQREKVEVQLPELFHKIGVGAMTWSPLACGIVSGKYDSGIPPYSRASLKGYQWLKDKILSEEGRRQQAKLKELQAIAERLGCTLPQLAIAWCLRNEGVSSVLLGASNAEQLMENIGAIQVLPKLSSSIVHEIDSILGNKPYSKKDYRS
Experiment: inhibitors of rat Kvbeta2 reductase activity – biochemical, NADPH fluorescence, primary screen (AID 622);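 further: slope of raw intensity against log time taken from 70 to 1610 s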
Conditions: recombinant KvBeta, 4-cyanobenzaldehyde reduction, at 10 µM, stronger effect = higher value
The source made the active and inactive calls.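 The calls were made as follows: active = fluorescence slope higher than the sample average by over 3 SD (cut at about -0.22 in these data, passing the limit was not always enough); inactive = the rest.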
measured-parameter: fluorescence slope

Record excerpt, results attached:
Sample `CN1CCN(C(=O)c2cnn3c(C(F)F)cc(C4CC4)nc23)CC1` ; fluorescence slope observed: -0.513 (inactive)

Sample `CCOC(=O)N1CCN(C(=O)CN(C)S(=O)(=O)c2ccc(OC)c(OC)c2)CC1` ; fluorescence slope observed: -0.614 (inactive)

Read the next record carefully.
Sample `Cc1ccc(C(=O)CSc2nnc(CNc3ccc(C)cc3C)o2)cc1` ; fluorescence slope observed: -0.477 (inactive)
